- TEST SYSTEM: cysteines in MDA-MB-231 and Ramos cells (Homo sapiens)
- Sequence (P42765 1-397): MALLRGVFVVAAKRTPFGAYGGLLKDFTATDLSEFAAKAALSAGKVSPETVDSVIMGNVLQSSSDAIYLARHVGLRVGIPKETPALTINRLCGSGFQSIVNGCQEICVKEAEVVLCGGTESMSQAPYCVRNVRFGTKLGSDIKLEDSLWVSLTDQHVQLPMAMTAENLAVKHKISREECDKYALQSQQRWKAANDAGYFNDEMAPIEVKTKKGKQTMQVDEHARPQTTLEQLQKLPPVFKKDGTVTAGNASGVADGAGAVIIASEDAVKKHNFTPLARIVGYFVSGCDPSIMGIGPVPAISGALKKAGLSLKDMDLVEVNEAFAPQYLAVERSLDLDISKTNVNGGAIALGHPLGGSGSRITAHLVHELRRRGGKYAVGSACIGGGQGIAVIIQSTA
- EXPERIMENTAL DETAILS: Competitive isoTOP-ABPP in situ (fragment-treated cells)
- Type: cell-based
- RUN PARAMETERS: 200 μM, insitu, 231
MEASURE: isoTOP-ABPP ratio P42765_C92
// no unit, no text: just the number

Name the recorded isoTOP-ABPP ratio P42765_C92 of the item Cc1ccc(C=C(C#N)C(=O)NCCN2CCOCC2)cc1 [compound 41] in your answer.
1.1

Name the recorded isoTOP-ABPP ratio P42765_C92 of the item CC(C)CCOCCNC(=O)CCl [compound 27] in your answer.
1.2

Name the recorded isoTOP-ABPP ratio P42765_C92 of the item C=CC(=O)N(Cc1cccnc1)c1cc(C(F)(F)F)cc(C(F)(F)F)c1 [compound 31] in your answer.
0.8

Name the recorded isoTOP-ABPP ratio P42765_C92 of the item O=C(CCl)Nc1cccc2ncccc12 [compound 51] in your answer.
1.1

Name the recorded isoTOP-ABPP ratio P42765_C92 of the item O=C(CCl)N1CCN(S(=O)(=O)c2ccccc2F)CC1 [compound 10] in your answer.
3.7

Name the recorded isoTOP-ABPP ratio P42765_C92 of the item O=C(CCl)NC(=O)NC12CC3CC(CC(C3)C1)C2 [compound 12] in your answer.
20.0

Name the recorded isoTOP-ABPP ratio P42765_C92 of the item C=CC(=O)Nc1cc(F)c(N2CCN(C(=O)OC(C)(C)C)CC2)c(F)c1 [compound 38] in your answer.
0.9

Name the recorded isoTOP-ABPP ratio P42765_C92 of the item O=C(CCl)NC12CC3CC(CC(C3)C1)C2 [compound 21] in your answer.
1.3

Name the recorded isoTOP-ABPP ratio P42765_C92 of the item CC1CCc2ccccc2N1C(=O)CCl (stereo not drawn) [compound 45] in your answer.
15.1
